Data credit: the RNAGym collection of RNA variant scans (doi:10.1002/anie.201605470)

We begin with a simple list: items and their reported self-cleavage.
B1: Osa-1-4 twister ribozyme (parent)
chain: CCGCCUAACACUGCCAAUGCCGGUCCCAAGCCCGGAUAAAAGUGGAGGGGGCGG

Variants of: B1
procedureSummary: self-cleavage, relative activity (ratio to wild type); higher = more cleavage; co-transcriptional
endpoint: self-cleavage

>>> measurednumber("CCGCCUAACUCUGCCGAUGCCGGUCCCAAGCCCGGAUAAAAGUGGAGGGGGCGG [A10U A16G]")
0.06
>>> measurednumber("CCGCCUCACACUGCCAAUGCCGGUCCCAAGCCCGGAUAAAAGUGGAGGGCGCGG [A7C G50C]")
0.04
>>> measurednumber("CCGCCUAACACUGCCAAUGCCGGUCCCAAGCCCGGAUAAAUGUGAAGGGGGCGG [A41U G45A]")
0.25
>>> measurednumber("CCGCCUAACACUGCCAAUGACGGUCCCAAGCCCGGAUAAAAGUGGAGGGCGCGG [C20A G50C]")
0.78
>>> measurednumber("CCGCCUAACACUGCCAAUGACGGUCCCAAGCCCGGAUACAAGUGGAGGGGGCGG [A39C C20A]")
0.87
>>> measurednumber("CCGCCUAACACUGCCAAUGCCGGUCCCAAGCCCGGAUAAAAGUGAAGGGGGAGG [C52A G45A]")
0.26
>>> measurednumber("CCGCCUAACACUGCCAAUGCCGGUCCCAAGCCCAGAUAGAAGUGGAGGGGGCGG [A39G G34A]")
0.8
>>> measurednumber("CCGCCUAACACUGCCAAGGCCGGUCCCAAGCCCGGAUAAAAGUUGAGGGGGCGG [G44U U18G]")
0.64
>>> measurednumber("CCGCCUAACACUGCCAAGGCCGGUCCCAAGCCCGGAUACAAGUGGAGGGGGCGG [A39C U18G]")
0.83
>>> measurednumber("CCGCCUAACACUGCGAAUGCCGGUCCCAAGCCCGGGUAAAAGUGGAGGGGGCGG [A36G C15G]")
0.84
>>> measurednumber("CCGCCUAAGACUGCCAAUGCCGGUCCCAAGUCCGGAUAAAAGUGGAGGGGGCGG [C31U C9G]")
0.16
>>> measurednumber("CCGCCUAACACUGCCAAUGCCGGUCCCAAGCCCGGAUAAAAGUCGAGCGGGCGG [G44C G48C]")
0.08
>>> measurednumber("CCGCCUAACACUGCCAAAGCCGGUCCCAAGCCCGGAUAAAAGUGGAGGGGCCGG [G51C U18A]")
0.12
>>> measurednumber("CCGCCUAACAAUGCCAAUGCCGGUCCCAAGCCCGGAUAAAAGCGGAGGGGGCGG [C11A U43C]")
0.1
>>> measurednumber("CCGCCUAUCACUGCCUAUGCCGGUCCCAAGCCCGGAUAAAAGUGGAGGGGGCGG [A16U A8U]")
0.35
>>> measurednumber("CCGCCUAACACUGCCAAUGCCGGUCCCAAGCCCGGAUAAUAGUGGAGGGGGCCG [A40U G53C]")
0.06
>>> measurednumber("CCGCCUAUCACUGCCAAUGCCGGUCCCAAGCCCGGAUGAAAGUGGAGGGGGCGG [A38G A8U]")
0.27
>>> measurednumber("CCGCCUAACACGGCCAAUGCCGGCCCCAAGCCCGGAUAAAAGUGGAGGGGGCGG [U12G U24C]")
0.04
>>> measurednumber("CCGCCUAACACUGCCAAUGCCGGUCCCACGCCCGGAUAAAAGUGGAGUGGGCGG [A29C G48U]")
0.01
>>> measurednumber("CCGCCUAACACUGCAAAUGCCGGUCCCAAGCCGGGAUAAAAGUGGAGGGGGCGG [C15A C33G]")
0.03
>>> measurednumber("CCGCCUAACACUGCCAAUGCCGGUCCCGAGCCCGGAUAGAAGUGGAGGGGGCGG [A28G A39G]")
0.17
>>> measurednumber("CCGCCUAACAUUGCCAAUGCCGGUCCCAAGCCCGGAUAAAAGUGGAGGGGGCAG [C11U G53A]")
0.62
>>> measurednumber("CCGCCUAACACUGCCAAUGCCGGUCCCAGGCCCGGAUAAAAGUGGAGGGGGGGG [A29G C52G]")
0.22
>>> measurednumber("CCGCCUAACUCUGCCAAUGCCGGUCCCAAGCCCGGAUCAAAGUGGAGGGGGCGG [A10U A38C]")
0.06
>>> measurednumber("CCGCCUAACACUGACAAUGCCGGUCCCAAGCCCGGAUAAAAGUGGAGGGUGCGG [C14A G50U]")
0.07
>>> measurednumber("CCGCCUAACACUGCCAAUGCCGUUCCCAAGCCCGGAUAAAAGUGGAGGUGGCGG [G23U G49U]")
0.03
>>> measurednumber("CCGCCUAACACUGCCAAUUCCGGUCCCAGGCCCGGAUAAAAGUGGAGGGGGCGG [A29G G19U]")
0.07
>>> measurednumber("CCGCCUAACACUGCCAAGGCCGGUCCCAAGCCCGGAUAAAAGUGGAGUGGGCGG [G48U U18G]")
0.13
>>> measurednumber("CCGCCUAACACUGCCUAUGCCGGUCACAAGCCCGGAUAAAAGUGGAGGGGGCGG [A16U C26A]")
0.03
>>> measurednumber("CCGCCUAACACUGCAAAUGCCGGUCCCAAGCCCGGAUAACAGUGGAGGGGGCGG [A40C C15A]")
0.05
>>> measurednumber("CCGCCUAACACUGCCAAUGCCGGUUCCAAGCCCUGAUAAAAGUGGAGGGGGCGG [C25U G34U]")
0.77
>>> measurednumber("CCGCCUAACACUGCCAAUGCAGGUCCCAAGCCCGGAUAAAAGUGCAGGGGGCGG [C21A G45C]")
0.05
>>> measurednumber("CCGCCUAACACUGCCAAUGCCGGUCCCAAGCCCAGAUAAAAGUGGAGGCGGCGG [G34A G49C]")
0.07
>>> measurednumber("CCGCCUAACACUGCCAAUGCCGGUCCCAAGCCAGGAUAAACGUGGAGGGGGCGG [A41C C33A]")
0.13
>>> measurednumber("CCGCCUAACUCUGCCAAUGCCGGUCCCAAGCCCGGAUAAAAGUGGAAGGGGCGG [A10U G47A]")
0.02
>>> measurednumber("CCGCCUAACACUGCCAAUGCCGAUCCCAAGCCCGGAUAAAAGCGGAGGGGGCGG [G23A U43C]")
0.09
>>> measurednumber("CCGCCUAACACUGCCAAUGCGGGUCCCAAGCCCGGAUACAAGUGGAGGGGGCGG [A39C C21G]")
0.08
>>> measurednumber("CCGCCUCACACUGCCAAUGCCGGUCCCGAGCCCGGAUAAAAGUGGAGGGGGCGG [A28G A7C]")
0.04
>>> measurednumber("CCGCCUGACACUGCCAAUGCCGGUCCCAAGCCCGGAUAAAAGUGGAGGGGACGG [A7G G51A]")
0.12
>>> measurednumber("CCGCCUAACACUGCCGAUGCCGGUCCCAAGCCCGGAUAAAAGUGGAGGGGGCUG [A16G G53U]")
0.71
>>> measurednumber("CCGCCUAACUCUGCCAAUGCUGGUCCCAAGCCCGGAUAAAAGUGGAGGGGGCGG [A10U C21U]")
0.07
>>> measurednumber("CCGCCUAACACUGCCAAUGCCGGUCCCAAGCCCGGAUAAAUGUGGAGGGGCCGG [A41U G51C]")
0.1
>>> measurednumber("CCGCCUAACACUGCCAAUGCCGGUCCCAACCCCGCAUAAAAGUGGAGGGGGCGG [G30C G35C]")
0.04
>>> measurednumber("CCGCCUAACACUGCCAGUGCCGGUCCCAAGCCCGGAUAAAAGUGGAGGGGGCAG [A17G G53A]")
0.85
>>> measurednumber("CCGCCUAACACUGCCAAUGCCGAUCCGAAGCCCGGAUAAAAGUGGAGGGGGCGG [C27G G23A]")
0.05
>>> measurednumber("CCGCCUAACACUGCCCAUGCCGGUCCCAAGCCCGGAUAAAAGUGGAGGGGGCGG [A16C]")
0.97
>>> measurednumber("CCGCCUAACAUUGCCAAUGCCGGUCCCAAGGCCGGAUAAAAGUGGAGGGGGCGG [C11U C31G]")
0.06
>>> measurednumber("CCGCCUAACAGUGCCAAUACCGGUCCCAAGCCCGGAUAAAAGUGGAGGGGGCGG [C11G G19A]")
0.08
>>> measurednumber("CCGCCUAACAAUGCCAAUGCCGGUCCCAAGCCCGGAUAACAGUGGAGGGGGCGG [A40C C11A]")
0.05
>>> measurednumber("CCGCCUAACACUGCCAAUGCCGGUCCCAAUCCCGGAUAUAAGUGGAGGGGGCGG [A39U G30U]")
0.05
>>> measurednumber("CCGCCUAACACUGCCUAUGUCGGUCCCAAGCCCGGAUAAAAGUGGAGGGGGCGG [A16U C20U]")
0.89
>>> measurednumber("CCGCCUAACACUGCCAAUGCCGGUCCCAAGGCCGGAUAAAAGUCGAGGGGGCGG [C31G G44C]")
0.07
>>> measurednumber("CCGCCUAACACUGCCAAUGCCGGUCCCAAGCCAGGAUAAAAGUGCAGGGGGCGG [C33A G45C]")
0.04
>>> measurednumber("CCGCCUAACACUGCCAAUGCCGGUCCCAAGGCCGGAUAAAAGAGGAGGGGGCGG [C31G U43A]")
0.1
>>> measurednumber("CCGCCUAACACUGCCAAUGUCGGUCCCAAGCCCGGAUAAAAGUGGAGGGGGCGC [C20U G54C]")
0.84
>>> measurednumber("CCGCCUAACACGGCCAAUGCCGGUCCCAAGCCCGGAUAAAAGUCGAGGGGGCGG [G44C U12G]")
0.08
>>> measurednumber("CCGCCUAACACUACCAAUGCCGGUCCCAAGCCCGUAUAAAAGUGGAGGGGGCGG [G13A G35U]")
0.08
>>> measurednumber("CCGCCUAACGCUGCCAAUGCCGGACCCAAGCCCGGAUAAAAGUGGAGGGGGCGG [A10G U24A]")
0.09
>>> measurednumber("CCGCCUAAGACUGCCAAUGCCGGUCCCAGGCCCGGAUAAAAGUGGAGGGGGCGG [A29G C9G]")
0.09
>>> measurednumber("CCGCCUAACACUGCCAAUGCCGGUCCCAAGCCCAGAUAAAAGUGCAGGGGGCGG [G34A G45C]")
0.06
